Entry source: the supplement of paper PMC10567573

Provide the reported protein stability index of each item.
B1: CDC25A (parent)
chain: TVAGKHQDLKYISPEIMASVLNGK

- Variants of: B1
- assay.comment: protein stability index of a GFP-peptide fusion (GPS, HEK-293T) (PSI 1-6); higher = more stable;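 also: lentivirally expressed fusions sorted by FACS into six bins by GFP to DsRed ratio, PSI derived from sequencing read proportions per bin multiplied by bin number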
- details: c terminus: a fixed tail appended

mutant.code	protein stability index
H6Q	3.43

Could you report protein stability index for every entry in the following list?
1. M17K
2. G4H
3. G23S
4. H6V

RESULT:
[3.96, 3.35, 3.01, 2.45]

Could you report protein stability index for every entry in the following list?
1. I16H
2. I16V
3. Q7Y
4. V2H
5. N22H
6. L9S

RESULT:
[3.97, 3.47, 2.49, 3.33, 2.96, 3.33]

Could you report protein stability index for every entry in the following list?
1. V2L
2. N22T
3. I12R
4. P14H

RESULT:
1. 2.96
2. 2.88
3. 3.58
4. 2.19

Could you report protein stability index for every entry in the following list?
1. E15D
2. D8T

RESULT:
1: 3.42; 2: 2.56

Could you report protein stability index for every entry in the following list?
1. I16R
2. N22I
3. A18T

RESULT:
3.73
2.77
3.74

Could you report protein stability index for every entry in the following list?
1. V20G
2. T1S
3. V20W
4. A18D
5. L9V
6. Y11I
7. N22K

RESULT:
[3.79, 3.14, 2.84, 3.45, 3.27, 3.52, 2.94]

Could you report protein stability index for every entry in the following list?
1. T1C
2. N22G
3. K5R
4. D8A
5. P14V
6. Q7H

RESULT:
1. 3.07
2. 2.84
3. 3.2
4. 2.65
5. 2.7
6. 3.27

Could you report protein stability index for every entry in the following list?
1. L21W
2. N22Q

RESULT:
[3.17, 3.37]
